test system: LoVo/DX; assay: cells; type: cell-based, human; settings: Homo sapiens, LoVo/DX, 72 h, read-out: LoVo/DX IC50 (nM), 72 h exposure, SRB, mean ± SD
Hi! Just check whether IC50 is below 2000 nM. Below gives satisfied, equal or above gives not satisfied.

compound	system	label value
CCCCc1cn([C@H]2CCc3cc(OC)c(OC)c(OC)c3-c3ccc(NC)c(=O)cc32)nn1 [Compound 7]	LoVo/DX	satisfied
CNc1ccc2c(cc1=O)[C@@H](N)CCc1cc(OC)c(OC)c(OC)c1-2 [Compound 3]	LoVo/DX	satisfied
CNc1ccc2c(cc1=O)[C@@H](n1cc(-c3ccccn3)nn1)CCc1cc(OC)c(OC)c(OC)c1-2 [Compound 16]	LoVo/DX	satisfied
CCCCCCCCCCCCCCCC(=O)NCc1cn([C@H]2CCc3cc(OC)c(OC)c(OC)c3-c3ccc(NC)c(=O)cc32)nn1 [Compound 30]	LoVo/DX	not satisfied

Q: Item CNc1ccc2c(cc1=O)[C@@H](n1cc(C(=O)O)nn1)CCc1cc(OC)c(OC)c(OC)c1-2 [Compound 20] : IC50 beneath 2000 nM, strictly?
Ans: not satisfied

Q: Item CNc1ccc2c(cc1=O)[C@@H](n1cc(C3(O)CCCCC3)nn1)CCc1cc(OC)c(OC)c(OC)c1-2 [Compound 13] : IC50 beneath 2000 nM, strictly?
Ans: satisfied

====

Measured log10 IC50, listed per entry.
test system: LoVo/DX; assay: cells; type: cell-based, human; settings: Homo sapiens, LoVo/DX, 72 h, read-out: LoVo/DX IC50 (nM), 72 h exposure, SRB, mean ± SD
Please note: log10 values; quantity IC50; unit nM.

compound	measured property	result number
CNc1ccc2c(cc1=O)[C@@H](n1cc(COC(=O)c3ccncc3)nn1)CCc1cc(OC)c(OC)c(OC)c1-2 [Compound 28]	log10 IC50	3.00

Continue with the compound presented below.
Q: Field request: log10 IC50 | item: CNc1ccc2c(cc1=O)[C@@H](n1nnc(C(=O)O)c1C(=O)O)CCc1cc(OC)c(OC)c(OC)c1-2 [Compound 23]
Ans: 3.46

====

tested on: LoVo/DX; experiment: cells; type: cell-based, human; conditions: Homo sapiens, LoVo/DX, 72 h, read-out: LoVo/DX IC50 (nM), 72 h exposure, SRB, mean ± SD
Measured IC50, listed per entry.
Write the number in nM without appending the unit.

See these solved cases before continuing.
smiles notation	IC50 (nM)
CNc1ccc2c(cc1=O)[C@@H](n1cc(CNC(=O)OC)nn1)CCc1cc(OC)c(OC)c(OC)c1-2	1500
CNc1ccc2c(cc1=O)[C@@H](n1ccnn1)CCc1cc(OC)c(OC)c(OC)c1-2	55
CNc1ccc2c(cc1=O)[C@@H](n1cc(C(C)(C)O)nn1)CCc1cc(OC)c(OC)c(OC)c1-2	2400
CNc1ccc2c(cc1=O)[C@@H](n1cc(CNC(=O)CCC(F)(F)F)nn1)CCc1cc(OC)c(OC)c(OC)c1-2	3000

Continue with the compound presented below.
Q: Field request: IC50 | item: "CNc1ccc2c(cc1=O)[C@@H](n1cc(CCl)nn1)CCc1cc(OC)c(OC)c(OC)c1-2"
Ans: 95
